- tested.system: Glucocorticoid receptor (Homo sapiens) (UniProt P04150)
- Sequence (P04150 whole entry, looked up): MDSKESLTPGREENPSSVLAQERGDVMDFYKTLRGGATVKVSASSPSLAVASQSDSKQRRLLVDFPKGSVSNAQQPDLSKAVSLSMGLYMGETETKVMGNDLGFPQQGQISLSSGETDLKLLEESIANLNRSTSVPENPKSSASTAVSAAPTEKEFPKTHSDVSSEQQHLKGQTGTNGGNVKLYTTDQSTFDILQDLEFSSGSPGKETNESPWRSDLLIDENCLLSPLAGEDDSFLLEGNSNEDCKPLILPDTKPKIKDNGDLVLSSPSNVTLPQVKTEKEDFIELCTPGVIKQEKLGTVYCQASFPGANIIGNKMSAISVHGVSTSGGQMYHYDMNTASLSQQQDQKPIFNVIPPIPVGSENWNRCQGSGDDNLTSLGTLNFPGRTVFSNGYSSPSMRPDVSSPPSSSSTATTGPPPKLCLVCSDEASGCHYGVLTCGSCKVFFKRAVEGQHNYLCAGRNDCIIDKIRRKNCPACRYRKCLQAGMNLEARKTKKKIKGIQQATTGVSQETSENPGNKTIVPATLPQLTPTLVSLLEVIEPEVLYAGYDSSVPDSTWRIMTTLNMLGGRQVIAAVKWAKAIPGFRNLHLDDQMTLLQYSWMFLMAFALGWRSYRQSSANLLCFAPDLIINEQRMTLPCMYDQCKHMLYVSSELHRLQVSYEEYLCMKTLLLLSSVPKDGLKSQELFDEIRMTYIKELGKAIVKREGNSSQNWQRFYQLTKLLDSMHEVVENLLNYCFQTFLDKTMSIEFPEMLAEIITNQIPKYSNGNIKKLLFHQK
- test: qHTS assay to identify small molecule agonists of the glucocorticoid receptor (GR) signaling pathway (AID 720691); for activation: % is set by controls: 0 for no effect and ±100 for the full control effect
- condition.notes: GR-bla HeLa, beta-lactamase reporter ratio, 18 h; series mostly up to 62.4 µM
Results filed as inconclusive are left out. Active and inactive are the calls of the source. Calls come from the whole dose curve; as a rule, active = well fitted activation curve with a large enough effect in the signal ratio in the repeat runs (not every such curve was filed as active); inconclusive = weak or mixed curves, or effect the other way; inactive = no such curve, though single readings can be large or run the other way; the % refers to the signal ratio.
Tick one outcome: class 1 (active), class 0 (inactive)

molecule	qualitative.label
CC(C)(C)c1ccc(OCC2CO2)cc1 (stereo not given)	class 0

Kindly consider the entry below.
Please share the test call associated with CCCCc1cc2ccccc2c(OCCN(C)C)n1 .
class 1

* * *

- test: Caspase-3/7 induction in CHO-K1 cells by small molecules, qHTS cell viability counter screen (AID 1346979); note: nearly all actives have a fitted effect of over 35% in size
- condition.notes: CellTiter-Fluor fluorescence, 17 h; series mostly up to 92.4 µM
Inconclusive results are not listed. Activity calls are given as the source filed them. Calls follow the shape of the dose curve; as a rule, active = well fitted cell-killing curve with a large enough effect in the repeat runs; inconclusive = weak or mixed curves, or effect the other way; inactive = no such curve, though single readings can be large or run the other way.
Lab note: assign the record to one of True (active), False (inactive)

For orientation, consider the following solved cases.
compound	qualitative.label
Cc1ccc(C(=O)C(C)CN2CCCCC2)cc1 (stereo not given)	False
CCCCCCCCCCCCCCCC(=O)OC/C=C(C)/C=C/C=C(C)/C=C/C1=C(C)CCCC1(C)C	False
O=[N+]([O-])c1cc[n+]([O-])cc1	True

Give the logged outcome of this assay for the following compound: CC[C@@H]1C[C@H](N(Cc2cc(C(F)(F)F)cc(C(F)(F)F)c2)C(C)=O)c2cc(C(F)(F)F)ccc2N1C(=O)OC(C)C
False

Hi team, can someone confirm the assay call for Cc1cc(C)c(S(=O)(=O)O)cc1N=Nc1cc(S(=O)(=O)O)c2ccccc2c1O ?
True
